# Tmax values compiled below
# Test details: Lung-tissue pharmacokinetics of PG–OJ components in tumor-bearing mice (UPLC–MS/MS)
# Assay type: in vivo, BALB/c nude male mice
# Condition set: male, BALB/c nude, mouse, lung tissue, po, 10.2 g/kg, lung tissue, A549 tumor-bearing mice, intragastric PG–OJ extract 10.2 g/kg (6.8 g/kg elsewhere in the source), mean ± SD, n = 6; read-out: Tmax (converted)
# Method: This study employed Ultra-Performance Liquid Chromatography–Mass Spectrometry (UPLC–MS/MS) to examine the pharmacokinetic properties of 20 bioactive components in a cell-derived xenograft (CDX) model following oral administration of a 10.2 g/kg PG–OJ extract. Healthy BALB/c nude male mice (weight: 18–21 g) were purchased from Beijing Huafukang Biotechnology Co., Ltd. (Beijing, China, License Number: SCXK (Jing) 2021-0006). […] The tumor diameter was measured daily using a caliper. […]
Give the quantity in h, number only.

[[record]]
molecule = "CC(C)=CCC[C@](C)(O[C@@H]1O[C@H](CO)[C@@H](O)[C@H](O)[C@H]1O)[C@H]1CC[C@]2(C)[C@@H]1[C@H](O)C[C@@H]1[C@@]3(C)CC[C@H](O)C(C)(C)[C@@H]3[C@@H](O[C@@H]3O[C@H](CO)[C@@H](O)[C@H](O)[C@H]3O[C@@H]3O[C@@H](C)[C@H](O)[C@@H](O)[C@H]3O)C[C@]12C [Ginsenoside Re]"
reported_measurement = 0.0833

[[record]]
molecule = "CC(C)=CCC[C@](C)(O[C@@H]1O[C@H](CO[C@@H]2O[C@@H](CO)[C@H](O)[C@H]2O)[C@@H](O)[C@H](O)[C@H]1O)[C@H]1CC[C@]2(C)[C@@H]1[C@H](O)C[C@@H]1[C@@]3(C)CC[C@H](O[C@@H]4O[C@H](CO)[C@@H](O)[C@H](O)[C@H]4O[C@@H]4O[C@H](CO)[C@@H](O)[C@H](O)[C@H]4O)C(C)(C)[C@@H]3CC[C@]12C [Ginsenoside Rc]"
reported_measurement = 12

[[record]]
molecule = "CC(C)=CCC[C@](C)(O[C@@H]1O[C@H](CO)[C@@H](O)[C@H](O)[C@H]1O)[C@H]1CC[C@]2(C)[C@@H]1[C@H](O)C[C@@H]1[C@@]3(C)CC[C@H](O)C(C)(C)[C@@H]3[C@@H](O[C@@H]3O[C@H](CO)[C@@H](O)[C@H](O)[C@H]3O)C[C@]12C [Ginsenoside Rg1]"
reported_measurement = 0.25

[[record]]
molecule = "CC(C)=CCC[C@](C)(O[C@@H]1O[C@H](CO[C@@H]2O[C@H](CO)[C@@H](O)[C@H](O)[C@H]2O)[C@@H](O)[C@H](O)[C@H]1O)[C@H]1CC[C@]2(C)[C@@H]1[C@H](O)C[C@@H]1[C@@]3(C)CC[C@H](O[C@@H]4O[C@H](CO)[C@@H](O)[C@H](O)[C@H]4O[C@@H]4O[C@H](CO)[C@@H](O)[C@H](O)[C@H]4O)C(C)(C)[C@@H]3CC[C@]12C [Ginsenoside Rb1]"
reported_measurement = 12


Continue with the next molecule.
Ask | What Tmax value was documented for this molecule, CC(C)=CC/C=C(\C)[C@H]1CC[C@]2(C)[C@@H]1[C@H](O)C[C@@H]1[C@@]3(C)CC[C@H](O[C@@H]4O[C@H](CO)[C@@H](O)[C@H](O)[C@H]4O[C@@H]4O[C@H](CO)[C@@H](O)[C@H](O)[C@H]4O)C(C)(C)[C@@H]3CC[C@]12C [Ginsenoside Rg5] ?
Reply | 4
